Reference source: paper PMC8868508

Quick list: MIC per entry.
tested on: MRSA NCTC 12493; assay type: cell-based, Methicillin-resistant Staphylococcus aureus
Where a SMILES comes first, the peptide text is derived from it.
# value in µM; strip the unit string

Recorded MIC, per entry:
[[record]]
compound = "CC[C@H](C)[C@H](NC(=O)[C@H](C)NC(=O)[C@H](CCCCN)NC(=O)[C@@H]1CCCN1C(=O)[C@@H](NC(=O)[C@H](CC(C)C)NC(=O)[C@H](C)NC(=O)[C@H](CC(C)C)NC(=O)[C@H](C)NC(=O)[C@H](CC(C)C)NC(=O)[C@@H](N)Cc1ccccc1)[C@@H](C)CC)C(=O)N[C@@H](C)C(=O)N[C@@H](CCCCN)C(=O)N[C@@H](CC(C)C)C(=O)N[C@@H](CCCCN)C(N)=O [QUB-1609] (H-FLALALIPKAIAKLK-NH2)"
recorded_measurement = 8

[[record]]
compound = "CC[C@H](C)[C@H](NC(=O)[C@H](C)NC(=O)[C@H](CCC(=O)O)NC(=O)[C@H](CCCCN)NC(=O)CNC(=O)[C@H](CC(C)C)NC(=O)[C@H](C)NC(=O)[C@H](CC(C)C)NC(=O)[C@H](C)NC(=O)[C@H](CC(C)C)NC(=O)[C@@H](N)Cc1ccccc1)C(=O)N[C@@H](C)C(=O)N[C@@H](CCCCN)C(=O)N[C@@H](CC(C)C)C(=O)N[C@@H](CCCCN)C(N)=O [QUB-1585] (H-FLALALGKEAIAKLK-NH2)"
recorded_measurement = 64


Hi! What's the reported MIC for CC[C@H](C)[C@H](NC(=O)[C@H](C)NC(=O)[C@H](CCC(=O)O)NC(=O)[C@H](CCC(N)=O)NC(=O)[C@@H](NC(=O)[C@H](CC(C)C)NC(=O)[C@H](C)NC(=O)[C@H](CC(C)C)NC(=O)[C@H](C)NC(=O)[C@H](CC(C)C)NC(=O)[C@@H](N)Cc1ccccc1)[C@@H](C)CC)C(=O)N[C@@H](C)C(=O)N[C@@H](CCCCN)C(=O)N[C@@H](CC(C)C)C(=O)N[C@@H](CCCCN)C(N)=O [QUB-1641] (H-FLALALIQEAIAKLK-NH2) on MRSA NCTC 12493? 64
